// data source = PubChem BioAssay (NCI)

Please respond with reported growth for every item in the list.
- System: SK-MEL-5 melanoma
- assay: NCI-60 one-dose screen, 48 h (100 = growth as untreated, 0 = no growth, -100 = all killed)
- condition-notes: 10 µM unless noted
Compounds without any hit were thinned out: in the full panel of roughly 83,000, 20% have a hit.
Expressed in %, but write only the number.

Form: compound = CCN(CC)CCC(=O)c1ccc(OC)c2ccccc12 ; growth = 107

Form: compound = Cc1ccc(-c2nc(/C=N/Nc3cc(C)nc4ccc(Cl)cc34)c(C)o2)cc1 ; growth = 49.6

Form: compound = CN1Cc2c(cc(CN3CCCCC3)n2C)C(c2ccc(Br)cc2)C1 (stereo not given) ; growth = 61.2

Form: compound = COc1ccc(C(=O)c2sc3nc4c(c(C(F)(F)F)c3c2N)CN(C(C)=O)CC4)cc1OC ; growth = 77.6

Form: compound = CC/C(=C(\c1ccccc1)c1ccc(OCCNC)cc1)c1ccccc1 ; growth = -99.8

Form: compound = c1ccc2c(Nc3cccc4ccccc34)cccc2c1 ; growth = 71

Form: compound = Cn1cc(-c2ccc(-c3cn(C)c4ncccc34)[nH]2)c2cccnc21 ; growth = 9.47

Form: compound = Cc1cc2c(cc1C)NC1=C(N2)OC(c2c3ccccc3cc3ccccc23)C1=O (stereo not given) ; growth = -40.6

Form: compound = C=C1C(=O)O[C@H]2[C@H]1CC/C(Cn1cc(Cc3c[nH]c4ccccc34)nn1)=C\CC[C@@]1(C)O[C@@H]21 ; growth = 24.9

Form: compound = Cn1c2ccccc2c2c3c(c4c5ccccc5[nH]c4c21)C(=O)N(N)C3=O ; growth = 31

###

- System: UACC-257 melanoma
- assay: NCI-60 one-dose screen, 48 h (100 = growth as untreated, 0 = no growth, -100 = all killed)
- condition-notes: 10 µM unless noted
About 83,000 compounds went through this panel and 20% of them were active in at least one assay; those are over-represented in the sample as a whole.
Please respond with reported growth for every item in the list.
Expressed in %, but write only the number.

Recorded growth for CC1=N/C(=C\c2cccc(Br)c2)C(=O)O1 on UACC-257 melanoma was 80.6

Recorded growth for CCCCCCCCCCCCS(=O)CC(C)O (centres undefined) on UACC-257 melanoma was 94.7

Recorded growth for Cc1ccc(S(=O)(=O)n2cc(-c3csc(-c4cn(C)c5ncccc45)n3)c3ccccc32)cc1 on UACC-257 melanoma was 70.8

Recorded growth for Cc1cc2c(cc1C)NC1=C(N2)OC(c2c3ccccc3cc3ccccc23)C1=O (centres undefined) on UACC-257 melanoma was 65.5

Recorded growth for CCCCCCCCCCCCCCCCCCSC1=CC(=O)C(OC)=C(OC)C1=O on UACC-257 melanoma was 90.8

Recorded growth for COc1cc(C2C(C(=O)c3cccs3)=C(O)C(=O)N2CCN2CCOCC2)cc(OC)c1OC (centres undefined) on UACC-257 melanoma was 108

Recorded growth for COc1ccc2nc3cc(Cl)ccc3c(N3CCN(c4nccc(Nc5ccccc5)n4)CC3)c2c1 on UACC-257 melanoma was 82.2

Recorded growth for CCCCCCCCCCCCCCCC[N+]1(CC)CCCC1 on UACC-257 melanoma was -46

Recorded growth for COc1cc(-c2nc3ccccc3s2)ccc1NC(=O)COc1ccc(Cl)cc1 on UACC-257 melanoma was 85.3
